Entries and their Plant response rating, Giant foxtail values follow.
test system: giant foxtail; assay: Test B pre/postemergence giant foxtail; assay type: in vivo, Setaria faberii; details: Preemergence, Rate 62 g/ha; scale of 0 to 10 where 0 is no effect and 10 is complete control
The answer should be a number; do not append a unit.

# example entries with known answers
COCCOCn1c(=O)on(C(=O)N(c2ccc(F)cc2F)C(C)C)c1=O ... 9
CC(C)N(C(=O)n1oc(=O)n(COCC[Si](C)(C)C)c1=O)c1ccc(Cl)cc1 ... 0
CC(C)N(C(=O)n1oc(=O)n(CC2=CCCCC2)c1=O)c1ccccc1 ... 2

# evaluate next
Data point: "CC(C)=CCn1c(=O)on(C(=O)N(c2ccc(F)cc2F)C(C)C)c1=O" ; Plant response rating, Giant foxtail = 10

====

test system: soybean; experiment: Test B pre/postemergence soybean; type: in vivo, Glycine max; conditions: Preemergence, Rate 500 g/ha; scale of 0 to 10 where 0 is no effect and 10 is complete control
Recorded Plant response rating, Soybean, one value per entry.
Reply: number alone, nothing else.

Item CC(C)N(C(=O)n1oc(=O)n(Cc2nnc(Cl)s2)c1=O)c1ccc(F)cc1 [Compound 646] was tested on soybean; the reported Plant response rating, Soybean is 0

soybean Plant response rating, Soybean of CC(C)N(C(=O)n1oc(=O)n(CC(C)(C)C)c1=O)c1ccccc1 [Compound 276] is 0

Measured Plant response rating, Soybean for this entry C=CCn1c(=O)on(C(=O)N(c2c(C)cccc2C)C(C)COC)c1=O (stereo not shown) [Compound 600] on soybean: 0

// assay soybean, entry CCN(C(=O)n1oc(=O)n(C)c1=O)C1CCCCC1 [Compound 228] , Plant response rating, Soybean value = 0

====

Test system: blackgrass
Assay: Test B pre/postemergence blackgrass
Format: in vivo, Alopecurus myosuroides
Settings: Rate 500 g/ha, Postemergence; scale 0 to 10, 0 is no effect, 10 is complete control
Experimental: […] At the same time, these crop and weed species were also treated with postemergence applications of test chemicals formulated in the same manner. […] Treated plants and controls were maintained in a greenhouse for twelve to sixteen days, after which all species were compared to controls and visually evaluated. […]
Measured Quantity: Blackgrass plant response rating
Form rule: numeric answer, no unit written next to it.

// known answers, use as guide
CC(C)N(C(=O)n1oc(=O)n(C(C)C2=NOCC2)c1=O)c1ccc(Cl)cc1 (racemic) ... 8
CC(C)N(C(=O)n1oc(=O)n(CF)c1=O)c1ccc(F)cc1 ... 0
CC(C)N(C(=O)n1oc(=O)n(CCCC#N)c1=O)c1ccc(F)cc1F ... 9

Okay, now this molecule:
Entry "CC(C)N(C(=O)n1oc(=O)n(CC2=NOCCO2)c1=O)c1ccc(F)cc1F" under blackgrass had Blackgrass plant response rating of 6

====

tested on: bedstraw; assay: Test B pre/postemergence bedstraw; type: in vivo, Galium aparine; conditions: Rate 62 g/ha, Postemergence; scale of 0 to 10 where 0 is no effect and 10 is complete control
Measured Quantity: Bedstraw plant response rating
Just the number, please.

Before answering, review these 2 worked examples.
CC(C)N(C(=O)n1oc(=O)n(CC2CCC2)c1=O)c1ccc(F)cc1 ... 0
CCN(Cc1ccncc1)C(=O)n1oc(=O)n(C(C)C)c1=O ... 0

Value of Bedstraw plant response rating reported for the compound "COc1ccccc1Cn1c(=O)on(C(=O)N(c2ccc(F)cc2)C(C)C)c1=O" is 5

Briefly, Bedstraw plant response rating measured for "Cc1noc(C)c1Cn1c(=O)on(C(=O)N(c2ccc(F)cc2)C(C)C)c1=O" : 0

Form: compound = "CC(C)N(C(=O)n1oc(=O)[nH]c1=O)c1ccc(F)cc1" ; Bedstraw plant response rating = 0

Lookup result for "C=CCn1c(=O)on(C(=O)N(c2ccc(F)cc2)C(C)C)c1=O" ; measured Bedstraw plant response rating: 2

Form field Bedstraw plant response rating, entry "CC(C)N(C(=O)n1oc(=O)n(C)c1=O)c1ccc(Cl)cc1" : 4

get_value(item= "Cc1nc(C)c(-n2c(=O)on(C(=O)N(c3ccc(Cl)cc3)C(C)C)c2=O)s1" , readout=Bedstraw plant response rating) returns 0

Form: compound = CC(C)N(C(=O)n1oc(=O)n(C2CCCC(C(F)(F)F)C2)c1=O)c1ccc(F)cc1 (stereo not drawn) ; Bedstraw plant response rating = 0

====

system: bamyardgrass; test: Test B flood test barnyardgrass; format: in vivo, Echinochloa crus-galli; settings: Rate 500 g/ha; Pre-emergence; flood test species; scale 0 to 10 (0 no effect, 10 complete control)
Measured Quantity: Barnyardgrass plant response rating
Answer field: number only, no words.

Example entries begin here.
CC[Si](C)(C)Cn1c(=O)on(C(=O)N(c2ccc(F)cc2)C(C)C)c1=O ... 0
CC(C)N(C(=O)n1oc(=O)n(C2CCCCCC2)c1=O)c1ccc(F)cc1 ... 9
CC(C)N(C(=O)n1oc(=O)n(N2CCOCC2)c1=O)c1ccc(F)cc1F ... 0

Short answer for "Cc1noc(C)c1Cn1c(=O)on(C(=O)N(c2ccc(F)cc2)C(C)C)c1=O" : Barnyardgrass plant response rating was 0

The value of Barnyardgrass plant response rating measured for the compound "CC(C)N(C(=O)n1oc(=O)n(CCc2ccccc2)c1=O)c1ccc(F)cc1" turned out to be 0

====

In this section, each of the compounds is paired with its reported Blackgrass plant response rating.
test system: blackgrass; assay: Test B pre/postemergence blackgrass; format: in vivo, Alopecurus myosuroides; conditions: Preemergence, Rate 62 g/ha; scale of 0 to 10 where 0 is no effect and 10 is complete control

CC(C)N(C(=O)n1oc(=O)[nH]c1=O)c1ccc(F)cc1 ... 0
CC(C)N(C(=O)n1oc(=O)n(C2CCCCCC2)c1=O)c1ccc(F)cc1 ... 0
CC(=O)OCn1c(=O)on(C(=O)N(c2ccc(F)cc2)C(C)C)c1=O ... 0
CC(C)N(C(=O)n1oc(=O)n(C(C)C(=S)N(C)C)c1=O)c1ccc(Cl)cc1 (stereo not shown) ... 4
CC(C)N(C(=O)n1oc(=O)n(CCc2ccccc2)c1=O)c1ccc(F)cc1 ... 0

Input CC(C)N(C(=O)n1oc(=O)n(C(C)C2CC2)c1=O)c1ccccc1 (stereo not shown) . Output Blackgrass plant response rating: 8

The compound listed as "Cc1noc(C)c1Cn1c(=O)on(C(=O)N(c2ccc(F)cc2)C(C)C)c1=O" shows Blackgrass plant response rating equal to 2

====

tested on: purple nutsedge; test: Test B pre/postemergence purple nutsedge; assay type: in vivo, Cyperus rotundus; conditions: Postemergence, Rate 250 g/ha; scale 0 to 10, 0 is no effect, 10 is complete control
Measured Quantity: Plant response rating, Nutsedge

CC(C)N(C(=O)n1oc(=O)n(C2(C)CC2)c1=O)c1ccc(F)cc1 ... 0

// field: Plant response rating, Nutsedge; key: "C=C(C)CCn1c(=O)on(C(=O)N(c2ccccc2)C(C)C)c1=O" ; value = 0

compound Cc1nc(Cl)sc1C(C)n1c(=O)on(C(=O)N(c2ccc(F)cc2F)C(C)C)c1=O (stereo not shown) , Plant response rating, Nutsedge observed: 0

Recorded result, "CC(C)N(C(=O)n1oc(=O)n(C(CF)CF)c1=O)c1ccc(F)cc1" , Plant response rating, Nutsedge: 3

====

system: corn; assay: Test B pre/postemergence corn; type: in vivo, Zea mays; conditions: Preemergence, Rate 500 g/ha; scale of 0 to 10 where 0 is no effect and 10 is complete control
Measured Quantity: Plant response rating, Corn
Just the number.

Notebook: "Cc1noc(C)c1Cn1c(=O)on(C(=O)N(c2ccc(F)cc2)C(C)C)c1=O" , Plant response rating, Corn read as 3

The compound identified as "Cc1nc(C)c(-n2c(=O)on(C(=O)N(c3ccccc3)C(C)C)c2=O)s1" registered its Plant response rating, Corn at 0

The recorded Plant response rating, Corn for "CC(C)N(C(=O)n1oc(=O)n(CCCC#N)c1=O)c1ccc(F)cc1F" is 9

Form field Plant response rating, Corn, entry "CCOC(Cn1c(=O)on(C(=O)N(c2ccc(F)cc2F)C(C)C)c1=O)OCC" : 5

Recorded result, CCOC(=O)CC(C(=O)OCC)n1c(=O)on(C(=O)N(c2ccc(Cl)cc2)C(C)C)c1=O (stereo not drawn) , Plant response rating, Corn: 0

Plant response rating, Corn measured on C=CCn1c(=O)on(C(=O)N(c2c(C)cccc2C)C(C)COC)c1=O (stereo not drawn) = 0

====

system: surinam grass; test: Test B pre/postemergence surinam grass; assay type: in vivo, Brachiaria decumbens; settings: Preemergence, Rate 500 g/ha; scale of 0 to 10 where 0 is no effect and 10 is complete control
Below, each entry is listed alongside its reported B. signalgrass plant response rating.
# answer = number (no unit)

Measured B. signalgrass plant response rating of CC(C)N(C(=O)n1oc(=O)n(C2CC2)c1=O)c1ccc(F)cc1F [Compound 299] : 10

Measured B. signalgrass plant response rating of CC(C)N(C(=O)n1oc(=O)n(COCc2ccccc2)c1=O)c1ccccc1 [Compound 579] : 3

The molecule identified as CCCCCCn1c(=O)on(C(=O)N(c2ccccc2)C(C)C)c1=O [Compound 558] registered its B. signalgrass plant response rating at 6

Query CC(C)N(C(=O)n1oc(=O)n(CCC(F)(F)F)c1=O)c1ccc(F)cc1 [Compound 397] yields B. signalgrass plant response rating of 10

Reported B. signalgrass plant response rating for CCOP(=O)(Cn1c(=O)on(C(=O)N(c2ccc(F)cc2)C(C)C)c1=O)OCC [Compound 587] was 7
